pEC50 for assorted compounds
- Tested on: Human immunodeficiency virus 1
- Protocol Text: Antiviral activity against HIV1 in HEK293T cells
- Format: functional, organism-based
- Protocol Conditions: Human immunodeficiency virus 1, HEK-293T
Reminder that pEC50 is minus the log10 of a molar concentration.

| Chemical Smiles | Measured Metric | Endpoint Value |
| --- | --- | --- |
| CCc1ccc([C@H]2C[C@]23C(=O)Nc2ccc(Cl)cc23)o1 | pEC50 | 6.67 |
| Cc1cccc([C@H]2C[C@]23C(=O)Nc2ccc(Cl)cc23)n1 | pEC50 | 7.41 |

The record that follows has no pEC50 shown yet.
The compound Cn1nnc([C@H]2C[C@]23C(=O)Nc2ccc(Cl)cc23)n1 showed pEC50 equal to 7.26

----------
- Protocol Text: Oral bioavailability in […] rat at 50 mg/kg, po
- Format: ADME, organism-based
- Protocol Conditions: in vivo
In this section we review reported bioavailability values for a set of compounds.
Quick reminder: number only, in %, skip the unit.

| Chemical Smiles | Endpoint Value |
| --- | --- |
| CCOC(=O)[C@H]1C(C)(C)[C@]12C(=O)Nc1ccc(Br)cc12 | 27 |

For reference, reported bioavailability for O=C1Nc2ccc(Cl)cc2[C@@]12C[C@@H]2c1ccccn1 stands at 46

----------
- Test system: Human immunodeficiency virus 1
- Protocol Text: Antiviral activity against HIV1 L100I mutant
- Format: functional, organism-based
Measured Metric: pEC50
Quick note: pEC50 values are minus log10 of concentrations in mol/L.

| Chemical Smiles | Measured Metric | Endpoint Value |
| --- | --- | --- |
| O=C1Nc2ccc(Cl)cc2[C@@]12C[C@@H]2c1cccc(-c2cccs2)n1 | pEC50 | 7.00 |

So, CC1(C)[C@H](c2ccc3ccccc3n2)[C@@]12C(=O)Nc1ccc(Cl)cc12 ? Its pEC50 was 7.24

Lab note: O=C1Nc2ccc(Cl)cc2[C@@]12C[C@@H]2c1cccc(Br)n1 gave pEC50 of 6.56

Entry O=C1Nc2ccc(Cl)cc2[C@@]12C[C@@H]2c1ccsc1 ; pEC50 = 8.10

// pEC50 value for O=C1Nc2ccc(Cl)cc2[C@@]12C[C@@H]2c1cccc(-c2ccco2)n1 : 5.68

----------
- Tested on: Human immunodeficiency virus 1
- Protocol Text: Antiviral activity against HIV1 I135V mutant
- Assay type: functional, organism-based
Measured Metric: pEC50
API: returns pEC50 as number; meaning -log10 of concentration in mol/L.

| Chemical Smiles | Study Target | pEC50 |
| --- | --- | --- |
| Cc1cc([C@H]2C[C@]23C(=O)Nc2ccc(Cl)cc23)oc1C | Human immunodeficiency virus 1 | 7.23 |
| O=C1Nc2ccc(Cl)cc2[C@@]12C[C@@H]2c1cccc(Br)n1 | Human immunodeficiency virus 1 | 7.85 |
| O=C1Nc2ccc(Cl)cc2[C@@]12C[C@@H]2c1cccc(-c2ccco2)n1 | Human immunodeficiency virus 1 | 7.26 |
| C=Cc1cccc([C@H]2C(C)(C)[C@]23C(=O)Nc2ccc(Cl)cc23)n1 | Human immunodeficiency virus 1 | 7.54 |
| CC1(C)[C@H](c2ccc3ccccc3n2)[C@@]12C(=O)Nc1ccc(Cl)cc12 | Human immunodeficiency virus 1 | 7.33 |
| O=C1Nc2ccc(Cl)cc2[C@@]12C[C@@H]2c1ccsc1 | Human immunodeficiency virus 1 | 7.77 |

Hey, Human immunodeficiency virus 1 data for O=C1Nc2ccc(Cl)cc2[C@@]12C[C@@H]2c1cccc(-c2cccs2)n1 : pEC50 came out at 6.58

Query O=C1Nc2ccc(Cl)cc2[C@@]12C[C@@H]2c1ccccn1 on Human immunodeficiency virus 1; pEC50 returned: 7.59

----------
- Tested on: Human immunodeficiency virus 1
- Protocol Text: Antiviral activity against HIV1 K103N mutant
- Type: functional, organism-based
Known log10 of EC50 of a selection of compounds
Hey, these are logged values: log10 of EC50, nM being the unit before logging.

Observe how each entry below is paired with its result.
| Chemical Smiles | log10 of EC50 |
| --- | --- |
| O=C1Nc2ccc(Cl)cc2[C@@]12C[C@@H]2c1ccsc1 | 2.00 |
| C=Cc1cccc([C@H]2C(C)(C)[C@]23C(=O)Nc2ccc(Cl)cc23)n1 | 2.84 |
| O=C1Nc2ccc(Cl)cc2[C@@]12C[C@@H]2c1cccc(-c2cccs2)n1 | 3.35 |
| O=C1Nc2ccc(Cl)cc2[C@@]12C[C@@H]2c1cccc(Br)n1 | 3.29 |
| O=C1Nc2ccc(Cl)cc2[C@@]12C[C@@H]2c1cccc(-c2ccco2)n1 | 4.16 |

Record summary for CC1(C)[C@H](c2ccc3ccccc3n2)[C@@]12C(=O)Nc1ccc(Cl)cc12 : reported log10 of EC50 = 3.37

Item: C=Cc1cccc([C@H]2C[C@]23C(=O)Nc2ccc(Cl)cc23)n1 | log10 of EC50: 4.05

----------
Reported pEC50 values follow for various compounds
- Test system: Human immunodeficiency virus 1
- Protocol Text: Antiviral activity against HIV1 in HEK293T cells
- Format: functional, organism-based
- Protocol Conditions: Human immunodeficiency virus 1, HEK-293T
// pEC50 here means minus log10 of the molar concentration (mol/L)

Examples with answers:
| Chemical Smiles | Study Target | pEC50 |
| --- | --- | --- |
| COc1c(C)cnc([C@H]2C[C@]23C(=O)Nc2ccc(Cl)cc23)c1C | Human immunodeficiency virus 1 | 6.33 |
| Cc1cnc([C@H]2C[C@]23C(=O)Nc2ccc(Cl)cc23)c(C)c1[N+](=O)[O-] | Human immunodeficiency virus 1 | 6.74 |
| CC#Cc1cccc([C@H]2C[C@]23C(=O)Nc2ccc(Cl)cc23)n1 | Human immunodeficiency virus 1 | 6.19 |

In plain terms, CCc1ccc([C@H]2C[C@]23C(=O)Nc2ccc(Cl)cc23)s1 has a documented pEC50 of 6.80

----------
- System: Human immunodeficiency virus 1
- Protocol Text: Antiviral activity against HIV1 V106A mutant
- Type: functional, organism-based
Reported EC50 by item:
Give a bare numeral; the unit nM is implied.

Here is how some molecules turned out for EC50.
| Chemical Smiles | Endpoint Value |
| --- | --- |
| O=C1Nc2ccc(Cl)cc2[C@@]12C[C@@H]2c1ccsc1 | 513 |
| O=C1Nc2ccc(Cl)cc2[C@@]12C[C@@H]2c1cccc(-c2cccs2)n1 | 147 |
| Cc1cc([C@H]2C[C@]23C(=O)Nc2ccc(Cl)cc23)oc1C | 630 |
| O=C1Nc2ccc(Cl)cc2[C@@]12C[C@@H]2c1ccccn1 | 259 |
| CC1(C)[C@H](c2ccc3ccccc3n2)[C@@]12C(=O)Nc1ccc(Cl)cc12 | 102 |
| O=C1Nc2ccc(Cl)cc2[C@@]12C[C@@H]2c1cccc(Br)n1 | 166 |

get_value(item= O=C1Nc2ccc(Cl)cc2[C@@]12C[C@@H]2c1cccc(-c2ccco2)n1 , readout=EC50) returns 2520

EC50 measured on C=Cc1cccc([C@H]2C(C)(C)[C@]23C(=O)Nc2ccc(Cl)cc23)n1 = 41

// C=Cc1cccc([C@H]2C[C@]23C(=O)Nc2ccc(Cl)cc23)n1 : EC50 value = 149

----------
- System: Human immunodeficiency virus 1
- Protocol Text: Antiviral activity against HIV1 L100I mutant
- Format: functional, organism-based
Catalogue of EC50 readings, one per entry.
Entry rule: numbers only, all in nM.

Guide cases for EC50, answers given:
| Chemical Smiles | EC50 (nM) |
| --- | --- |
| C=Cc1cccc([C@H]2C(C)(C)[C@]23C(=O)Nc2ccc(Cl)cc23)n1 | 228 |
| C=Cc1cccc([C@H]2C[C@]23C(=O)Nc2ccc(Cl)cc23)n1 | 178 |
| Cc1cc([C@H]2C[C@]23C(=O)Nc2ccc(Cl)cc23)oc1C | 260 |

# next molecule below
// EC50 value for O=C1Nc2ccc(Cl)cc2[C@@]12C[C@@H]2c1ccccn1 : 174

----------
Quick list: EC50 per entry.
- Tested on: Human immunodeficiency virus 1
- Protocol Text: Antiviral activity against HIV1 in HEK293T cells
- Format: functional, organism-based
- Protocol Conditions: Human immunodeficiency virus 1, HEK-293T
# unit: nM | format: bare number

GET /values?item= O=C1Nc2ccc(Cl)cc2[C@@]12C[C@@H]2c1cc2ccccc2o1 &system= Human immunodeficiency virus 1 returns EC50: 86

Entry O=C1Nc2ccc(Cl)cc2[C@@]12C[C@@H]2c1ccsc1 , Human immunodeficiency virus 1 data, EC50 value: 6

Simply: O=C1Nc2ccc(Cl)cc2[C@@]12C[C@@H]2c1cccc(-c2ccco2)n1 , Human immunodeficiency virus 1, EC50 = 18

Recorded EC50 for O=C1Nc2ccc(Cl)cc2[C@@]12C[C@@H]2c1ccccn1 on Human immunodeficiency virus 1 was 8

Entry CC1(C)[C@H](c2ccc3ccccc3n2)[C@@]12C(=O)Nc1ccc(Cl)cc12 : EC50 on Human immunodeficiency virus 1 = 10

Reported Human immunodeficiency virus 1 EC50 for item C=Cc1cccc([C@H]2C(C)(C)[C@]23C(=O)Nc2ccc(Cl)cc23)n1 was 8

The molecule O=C1Nc2ccc(Cl)cc2[C@@]12C[C@@H]2c1cccc(-c2ccccc2)n1 , tested on Human immunodeficiency virus 1, showed EC50 of 138

Per the reported Human immunodeficiency virus 1 data, O=C1Nc2ccc(Cl)cc2[C@@]12C[C@@H]2c1ccc(-c2cccc(C(F)(F)F)c2)o1 has EC50 of 5550

The recorded EC50 with Human immunodeficiency virus 1 for O=C1Nc2ccc(Cl)cc2[C@@]12C[C@@H]2c1cccn1S(=O)(=O)c1ccccc1 was 6770

Recorded EC50 for CSc1nc([C@H]2C[C@]23C(=O)Nc2ccc(Cl)cc23)ccc1C#N on Human immunodeficiency virus 1 was 436
